Molecular target: Bromodomain testis-specific protein (Homo sapiens, UniProt Q58F21)
Experiment: Inhibition of BRDT-BD1 (unknown origin) by HTRF analysis
Readout: pIC50
// pIC50: -log10(molar conc.)

Req: Suppose we examine the compound CCC(C)n1ccc2c(C(=O)NCc3c(C)cc(C)[nH]c3=O)cc(-c3cn(C)c(=O)c4[nH]ccc34)cc21 (stereo unspecified) ; what pIC50 value has been reported?
Resp: 7.46

###

Experiment: MRT(0 to infinity) in ICR mouse at 60 mg/kg, ip measured upto 24 hrs by LC-MS/MS analysis
Type: ADME, organism-based
Conditions: in vivo
Readout: MRT inf

Req: Using the record for CCC(C)n1ccc2c(C(=O)NCc3c(C)cc(C)[nH]c3=O)cc(-c3cn(C)c(=O)c4[nH]ccc34)cc21 (stereo unspecified) , report its MRT inf.
Resp: 6.94 h

###

Biological target: Bromodomain-containing protein 2 (Homo sapiens, UniProt P25440)
Sequence (P25440 whole entry): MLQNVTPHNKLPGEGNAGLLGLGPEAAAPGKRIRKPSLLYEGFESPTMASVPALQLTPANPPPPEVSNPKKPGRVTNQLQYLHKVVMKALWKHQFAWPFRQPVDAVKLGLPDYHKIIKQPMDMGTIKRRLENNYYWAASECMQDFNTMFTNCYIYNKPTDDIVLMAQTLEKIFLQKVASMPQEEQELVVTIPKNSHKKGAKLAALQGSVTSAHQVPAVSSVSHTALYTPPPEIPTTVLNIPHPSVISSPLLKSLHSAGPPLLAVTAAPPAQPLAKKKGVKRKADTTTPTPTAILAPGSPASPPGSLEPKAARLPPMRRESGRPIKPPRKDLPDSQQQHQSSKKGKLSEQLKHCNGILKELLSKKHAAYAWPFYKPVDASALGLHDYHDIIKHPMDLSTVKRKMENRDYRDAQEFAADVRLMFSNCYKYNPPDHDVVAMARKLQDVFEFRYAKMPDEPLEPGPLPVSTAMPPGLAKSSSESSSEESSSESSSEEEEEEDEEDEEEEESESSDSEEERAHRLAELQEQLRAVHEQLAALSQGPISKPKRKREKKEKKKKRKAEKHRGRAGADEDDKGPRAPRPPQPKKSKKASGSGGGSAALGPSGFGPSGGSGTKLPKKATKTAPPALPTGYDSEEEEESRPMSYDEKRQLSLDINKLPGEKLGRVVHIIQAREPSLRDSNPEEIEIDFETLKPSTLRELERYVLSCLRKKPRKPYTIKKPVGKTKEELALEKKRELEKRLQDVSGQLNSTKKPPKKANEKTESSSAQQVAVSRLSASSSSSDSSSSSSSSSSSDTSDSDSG
Experiment: Inhibition of BRD2-BD1/2 (unknown origin) by HTRF analysis
Readout: IC50 (µM)
Form entry: value (µM) — number only.

Req: Can you look up IC50 on Bromodomain-containing protein 2 (Homo sapiens, UniProt P25440) for CCC(C)n1ccc2c(C(=O)NCc3c(C)cc(C)[nH]c3=O)cc(-c3cn(C)c(=O)c4[nH]ccc34)cc21 (stereo unspecified) ?
Resp: 0.031

###

Assay: Half-life in ICR mouse at 60 mg/kg, ip measured upto 24 hrs by LC-MS/MS analysis
Type: ADME, organism-based
Conditions: in vivo
Readout: half-life (h)
Could you give me the number in h? Just the number is fine.

Req: Any idea what its half-life is? The compound is CCC(C)n1ccc2c(C(=O)NCc3c(C)cc(C)[nH]c3=O)cc(-c3cn(C)c(=O)c4[nH]ccc34)cc21 (stereo unspecified)
Resp: 13.6

###

Test: Tmax in ICR mouse at 60 mg/kg, ip measured upto 24 hrs by LC-MS/MS analysis
Type: ADME, organism-based
Details: in vivo
Readout: Tmax (min)
I only need the number, in min, no unit after it.

Req: So what's the measured Tmax for this one? CCC(C)n1ccc2c(C(=O)NCc3c(C)cc(C)[nH]c3=O)cc(-c3cn(C)c(=O)c4[nH]ccc34)cc21 (stereo unspecified)
Resp: 4.98

###

Assay read-out log10 IC50; system under study: Histone-lysine N-methyltransferase EZH2 (Homo sapiens, UniProt Q15910).
Sequence (Q15910 whole entry): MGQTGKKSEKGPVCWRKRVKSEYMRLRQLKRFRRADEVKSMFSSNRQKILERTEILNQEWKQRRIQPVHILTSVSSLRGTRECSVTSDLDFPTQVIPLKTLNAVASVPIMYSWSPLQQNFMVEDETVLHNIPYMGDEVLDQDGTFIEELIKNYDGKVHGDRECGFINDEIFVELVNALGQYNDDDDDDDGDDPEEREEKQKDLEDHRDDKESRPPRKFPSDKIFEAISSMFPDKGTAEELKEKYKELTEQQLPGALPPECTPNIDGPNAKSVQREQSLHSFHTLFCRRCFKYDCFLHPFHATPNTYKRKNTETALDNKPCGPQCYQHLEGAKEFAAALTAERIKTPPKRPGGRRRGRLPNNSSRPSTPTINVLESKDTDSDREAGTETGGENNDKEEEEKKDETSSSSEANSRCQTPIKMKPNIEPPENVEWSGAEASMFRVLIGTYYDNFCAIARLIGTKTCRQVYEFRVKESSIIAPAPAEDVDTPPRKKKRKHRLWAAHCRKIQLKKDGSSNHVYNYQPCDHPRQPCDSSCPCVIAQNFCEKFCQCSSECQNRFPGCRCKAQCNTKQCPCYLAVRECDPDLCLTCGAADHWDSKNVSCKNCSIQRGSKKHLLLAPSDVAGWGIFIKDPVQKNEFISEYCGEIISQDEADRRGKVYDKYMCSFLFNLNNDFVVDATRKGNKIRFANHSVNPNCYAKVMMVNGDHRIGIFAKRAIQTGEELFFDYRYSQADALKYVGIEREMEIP
Values below are the log10 of the recorded IC50, with nM as the unit.

Solved entries (count: 3):
>>> recorded_number("CCC(C)n1cc(C)c2c(C(=O)NCc3c(C)cc(C)[nH]c3=O)cc(-c3cn(C)c(=O)c4[nH]ccc34)cc21 (centres undefined)")
0.04
>>> recorded_number("CCC(C)n1cc(C)c2c(C(=O)NCc3c4c(c(C)[nH]c3=O)CCCC4)cc(-c3cn(C)c(=O)c4[nH]ccc34)cc21 (centres undefined)")
0.90
>>> recorded_number("Cc1cc(C)c(CNC(=O)c2cc(-c3cn(C)c(=O)c4[nH]ccc34)cc3c2cnn3C2CCCC2)c(=O)[nH]1")
1.57

Req: Endpoint output: log10 IC50 of CCC(C)n1ccc2c(C(=O)NCc3c4c(c(C)[nH]c3=O)CCCC4)cc(-c3cn(C)c(=O)c4[nH]ccc34)cc21 (centres undefined) . Value?
Resp: 0.72

Req: Fill in the blank: the reported log10 IC50 of Cc1cc(C)c(CNC(=O)c2cc(-c3cn(C)c(=O)c4[nH]ccc34)cc3c2ccn3C2CCCC2)c(=O)[nH]1 is ____.
Resp: 0.70

Req: // lookup log10 IC50 for Cc1[nH]c(=O)c(CNC(=O)c2cc(-c3cn(C)c(=O)c4[nH]ccc34)cc3[nH]ccc23)c2c1CCCC2
Resp: 2.00

###

Biological target: Bromodomain-containing protein 4 (Homo sapiens)
Test: Inhibition of BRD4 (unknown origin) by HTRF analysis
pIC50: −log10 of the molar value.
Readings of pIC50 for the listed compounds

Sample answers from the record:
>>> result("Cc1[nH]c(=O)c(CNC(=O)c2cc(-c3cn(C)c(=O)c4[nH]ccc34)cc3[nH]cc(C)c23)c2c1CCCC2")
"< 6.52"
>>> result("CCC(CC)n1ccc2c(C(=O)NCc3c(C)cc(C)[nH]c3=O)cc(-c3cn(C)c(=O)c4[nH]ccc34)cc21")
6.81
>>> result("CCC(C)n1cc(C)c2c(C(=O)NCc3c4c(c(C)[nH]c3=O)CCCC4)cc(-c3cn(C)c(=O)c4[nH]ccc34)cc21 (configuration not stated)")
"< 6.52"
>>> result("Cc1cc(C)c(CNC(=O)c2cc(-c3cn(C)c(=O)c4[nH]ccc34)cc3[nH]ccc23)c(=O)[nH]1")
"< 6.52"
>>> result("CCC(CC)n1ccc2c(C(=O)NCc3c4c(c(C)[nH]c3=O)CCCC4)cc(-c3cn(C)c(=O)c4[nH]ccc34)cc21")
"< 6.52"
>>> result("Cc1cc(C)c(CNC(=O)c2cc(-c3cn(C)c(=O)c4[nH]ccc34)cc3c2cnn3C2CCCC2)c(=O)[nH]1")
"< 6.52"

Req: Checklist item: pIC50 tested on Bromodomain-containing protein 4 (Homo sapiens), entry Cc1[nH]c(=O)c(CNC(=O)c2cc(-c3cn(C)c(=O)c4[nH]ccc34)cc3c2c(C)cn3CC2CCCCC2)c2c1CCCC2 , value?
Resp: < 6.52

###

Assay: Protein binding in mouse plasma assessed as bound fraction at 2 uM incubated for 5 hrs by equilibrium based LC-MS/MS analysis
Assay type: ADME, cell-free
Settings: read-out: PPB (converted)
Readout: fraction unbound at 5 h, 2 µM
API note: the answer field is a bare number with no unit suffix.

Req: Given the entry CCC(C)n1ccc2c(C(=O)NCc3c(C)cc(C)[nH]c3=O)cc(-c3cn(C)c(=O)c4[nH]ccc34)cc21 (stereo unspecified) , report its measured fraction unbound at 5 h, 2 µM.
Resp: 0.009

###

Listing: IC50 of selected compounds
Target: Bromodomain-containing protein 4 (Homo sapiens, UniProt O60885)
Experiment: Inhibition of BRD4 (unknown origin) by HTRF analysis
API: value field is a number in nM; no unit string.

>>> recorded_number("Cc1cc(C)c(CNC(=O)c2cc(-c3cn(C)c(=O)c4[nH]ccc34)cc3c2ccn3C2CCCC2)c(=O)[nH]1")
278
>>> recorded_number("CCCC(C)n1ccc2c(C(=O)NCc3c(C)cc(C)[nH]c3=O)cc(-c3cn(C)c(=O)c4[nH]ccc34)cc21 (stereo not drawn)")
173
>>> recorded_number("CCC(C)n1ccc2c(C(=O)NCc3c(C)cc(C)[nH]c3=O)cc(-c3cn(C)c(=O)c4[nH]ccc34)cc21 (stereo not drawn)")
147
>>> recorded_number("Cc1cc(C)c(CNC(=O)c2cc(-c3cn(C)c(=O)c4[nH]ccc34)cc3c2ccn3CC2CCCCC2)c(=O)[nH]1")
187

Next up:
Req: GET /values?readout=IC50&item= Cc1cc(C)c(CNC(=O)c2cc(-c3cn(C)c(=O)c4[nH]ccc34)cc3c2ccn3C(C)C)c(=O)[nH]1
Resp: 214

###

Quick record of IC50 values for UniProt Q15910.

Recorded IC50, per entry:
>>> result("Cc1cc(C)c(CNC(=O)c2cc(-c3cn(C)c(=O)c4[nH]ccc34)cc3[nH]cc(C)c23)c(=O)[nH]1")
"> 100 nM"
>>> result("Cc1[nH]c(=O)c(CNC(=O)c2cc(-c3cn(C)c(=O)c4[nH]ccc34)cc3c2c(C)cn3CC2CCCCC2)c2c1CCCC2")
"> 100 nM"

Turning now to a further compound:
Req: What IC50 appears in the records for this compound with UniProt Q15910? Cc1[nH]c(=O)c(CNC(=O)c2cc(-c3cn(C)c(=O)c4[nH]ccc34)cc3[nH]cc(C)c23)c2c1CCCC2
Resp: > 100 nM

###

Target: Bromodomain-containing protein 4 (Homo sapiens, UniProt O60885)
Test: Inhibition of BRD4 (unknown origin) by HTRF analysis
pIC50: −log10 of the molar value.
Readout: pIC50

>>> result("Cc1[nH]c(=O)c(CNC(=O)c2cc(-c3cn(C)c(=O)c4[nH]ccc34)cc3c2ccn3C2CCCC2)c2c1CCCC2")
"< 6.52"
>>> result("Cc1cc(C)c(CNC(=O)c2cc(-c3cn(C)c(=O)c4[nH]ccc34)cc3[nH]cc(C)c23)c(=O)[nH]1")
"< 6.52"

Continue with the molecule presented below.
Req: Suppose we examine the molecule Cc1cc(C)c(CNC(=O)c2cc(-c3cn(C)c(=O)c4[nH]ccc34)cc3c2c(C)cn3CC2CCCCC2)c(=O)[nH]1 ; what pIC50 value has been reported?
Resp: < 6.52
